Origin of measurements: the supplement of paper PMC7411054

For each record, write down the corresponding phenotypically active.
- Test system: A549-TUBA1B-RELA
- Test Name: phenotypically active (imaging signature differs from DMSO and reproducible) at any of 0.3-9 uM (binary (1 = active, 0 = inactive)); higher = active
- Particulars: treatment time: 24 h
Answer field: number only, no words.

Query string: Value lookup for phenotypically active; key = Cc1occc(=O)c1O [3-hydroxy-2-methyl-4-pyrone]
Result string: 0

Query string: Then "Cc1cccc(C)c1OCC(=O)N[C@@H](Cc1ccccc1)[C@@H](O)C[C@H](Cc1ccccc1)NC(=O)[C@H](C(C)C)N1CCCNC1=O" ?
Result string: 0

Query string: Note, next up: "COCCCC/C(=N/OCCN)c1ccc(C(F)(F)F)cc1"
Result string: 1

Query string: Now this one: NC(=O)c1cn(Cc2c(F)cccc2F)nn1 [rufinamide]
Result string: 0

Query string: Likewise for "CCc1cncnc1N1CCN(Cc2nc3cc(C(F)(F)F)ccc3[nH]2)CC1" ?
Result string: 0
